We begin with a simple list: items and their reported inhibition.
Biological target: Prostaglandin E synthase (Homo sapiens) (UniProt O14684)
Assay: Inhibition of human recombinant mPGES-1 expressed in CHO cells using PGH2 as substrate at 1 uM incubated for 10 mins prior to substrate addition measured after 1 min
Express your answer in %, writing the number without its unit.

Example compounds with recorded inhibition:
compound: CC(C)C(=O)NCc1ccc(Cl)c(-c2nc3cc(C(N)=O)ccc3c(=O)[nH]2)c1
experimental_system: Prostaglandin E synthase (Homo sapiens) (UniProt O14684)
units_of_measure: %
inhibition: 14
//
compound: CC(C)C(=O)NCc1ccc(Cl)c(-c2nc3cc(Cl)c(N4CCN(C)CC4)cc3c(=O)[nH]2)c1
experimental_system: Prostaglandin E synthase (Homo sapiens) (UniProt O14684)
units_of_measure: %
inhibition: 41
//
compound: CC(C)C(=O)NCc1ccc(Cl)c(-c2nc3cc(NC(=O)C4CC4)ccc3c(=O)[nH]2)c1
experimental_system: Prostaglandin E synthase (Homo sapiens) (UniProt O14684)
units_of_measure: %
inhibition: 21
//
compound: CNC(=O)C1CCN(c2cc3c(=O)[nH]c(-c4cc(CNC(=O)C(C)C)ccc4Cl)nc3cc2Cl)CC1
experimental_system: Prostaglandin E synthase (Homo sapiens) (UniProt O14684)
units_of_measure: %
inhibition: 28
//
compound: CC(C)C(=O)NCc1ccc(Cl)c(-c2nc3ccccc3c(=O)[nH]2)c1
experimental_system: Prostaglandin E synthase (Homo sapiens) (UniProt O14684)
units_of_measure: %
inhibition: 17
//
compound: CC(C)C(=O)NCc1ccc(Cl)c(-c2nc3cc(Cl)c(N4CC[C@@H](O)C4)cc3c(=O)[nH]2)c1
experimental_system: Prostaglandin E synthase (Homo sapiens) (UniProt O14684)
units_of_measure: %
inhibition: 67
//
compound: CC(C)C(=O)NCc1ccc(Cl)c(-c2nc3cc(F)ccc3c(=O)[nH]2)c1
experimental_system: Prostaglandin E synthase (Homo sapiens) (UniProt O14684)
units_of_measure: %
inhibition: 52
//
compound: CC(C)C(=O)NCc1ccc(Cl)c(-c2nc3cc(Cl)c(N4CCNC(=O)C4)cc3c(=O)[nH]2)c1
experimental_system: Prostaglandin E synthase (Homo sapiens) (UniProt O14684)
units_of_measure: %
inhibition: 30
//
compound: CC(C)C(=O)NCc1ccc(Cl)c(-c2nc3cc(Cl)c(N4CC[C@H](O)C4)cc3c(=O)[nH]2)c1
experimental_system: Prostaglandin E synthase (Homo sapiens) (UniProt O14684)
units_of_measure: %
inhibition: 42

For "CC(C)C(=O)NCc1ccc(Cl)c(-c2nc3cc(N)ccc3c(=O)[nH]2)c1" the compound record lists inhibition as 16

====

Assay: Stability in guinea pig liver microsomes assessed as compound remaining after 60 mins
Type: ADME, Cavia porcellus
Details: read-out: Stability
observed_property: remaining at 1 h (%)
Express your answer in %, writing the number without its unit.

For "CC(C)C(=O)NCc1ccc(Cl)c(-c2nc3cc(-c4ccc(C(F)(F)F)cc4)ncc3c(=O)[nH]2)c1" the compound record lists remaining at 1 h as 87

====

Molecular target: Prostaglandin E synthase (Homo sapiens, UniProt O14684)
Test: Inhibition of mPGES-1 in human whole blood assessed as inhibition of LPS-induced PGE2 production incubated for 30 mins prior to LPS challenge measured after 20 to 24 hrs by LC/MS/MS analysis
observed_property: pIC50
Convention used: pIC50 is expressed as -log10 of the molar concentration.

For "Cc1nc(NC(=O)c2cc(CNC(=O)C(C)C)cnc2C(F)F)[nH]c1-c1ccc(C(F)(F)F)cc1" the compound record lists pIC50 as 7.92

====

Target: UniProt O14684
Test: Inhibition of mPGES-1 in human whole blood assessed as inhibition of LPS-induced PGE2 production after overnight incubation
observed_property: IC50 (nM)
Express your answer in nM, writing the number without its unit.

Example compounds with recorded IC50:
compound: CC(C)C(=O)NCc1ccc(Cl)c(-c2nc3cc(-c4ccc(C(F)(F)F)cc4)ccc3c(=O)[nH]2)c1
units_of_measure: nM
IC50: 234
--
compound: CC(C)C(=O)NCc1ccc(Cl)c(-c2nc3cc(-c4ccc(C(F)(F)F)cc4)ncc3c(=O)[nH]2)c1
units_of_measure: nM
IC50: 376

Here's the next entry for you.
For "CC(C)C(=O)NCc1ccc(Cl)c(-c2nc3nc(-c4ccc(C(F)(F)F)cc4)ccc3c(=O)[nH]2)c1" the compound record lists IC50 as 328

====

Target: Prostaglandin E synthase (Homo sapiens) (UniProt O14684)
Assay: Inhibition of human recombinant mPGES-1 expressed in CHO cells using PGH2 as substrate at 10 uM incubated for 10 mins prior to substrate addition measured after 1 min
Assay type: cell-based
observed_property: inhibition (%)
Express your answer in %, writing the number without its unit.

Example compounds with recorded inhibition:
compound: CC(C)C(=O)NCc1ccc(Cl)c(-c2nc3cc(NC(=O)C4CC4)ccc3c(=O)[nH]2)c1
units_of_measure: %
inhibition: 74
--
compound: CC(C)C(=O)NCc1ccc(Cl)c(-c2nc3cc(F)ccc3c(=O)[nH]2)c1
units_of_measure: %
inhibition: 98

Here's the next entry for you.
For "CC(C)C(=O)NCc1ccc(Cl)c(-c2nc3ccccc3c(=O)[nH]2)c1" the compound record lists inhibition as 67

====

Molecular target: Prostaglandin E synthase (Homo sapiens, UniProt O14684)
Assay: Inhibition of human recombinant mPGES-1 expressed in CHO cells using PGH2 as substrate incubated for 10 mins prior to substrate addition measured after 1 min
observed_property: pIC50
Convention used: pIC50 is expressed as -log10 of the molar concentration.

Example compounds with recorded pIC50:
compound: COc1ccc2c(=O)[nH]c(-c3cc(CNC(=O)C(C)C)ccc3Cl)nc2c1
val: 6.52

compound: CC(C)C(=O)NCc1ccc(Cl)c(-c2nc3cc(Cl)c(-c4ccc(C(F)(F)F)cc4)cc3c(=O)[nH]2)c1
val: 7.44

compound: CC(C)C(=O)NCc1ccc(Cl)c(-c2nc3cc(-c4ccc(C(F)(F)F)nc4)ccc3c(=O)[nH]2)c1
val: 7.80

compound: CC(C)C(=O)NCc1ccc(Cl)c(-c2nc3ccc(-c4ccc(C(F)(F)F)cc4)cc3c(=O)[nH]2)c1
val: 7.26

compound: CC(C)C(=O)NCc1cnc(C(F)F)c(-c2nc3cc(-c4ccc(C(F)(F)F)cc4)ccc3c(=O)[nH]2)c1
val: 8.22

Fill in: Prostaglandin E synthase (Homo sapiens, UniProt O14684) pIC50 for "O=C(Nc1ccnc2c(Nc3ccc(C(F)(F)F)cc3)nsc12)c1c(F)cccc1Cl" = 6.80

Fill in: Prostaglandin E synthase (Homo sapiens, UniProt O14684) pIC50 for "CC(C)C(=O)NCc1ccc(Cl)c(-c2nc3cc(Cl)c(-c4ccncc4)cc3c(=O)[nH]2)c1" = 6.32

Fill in: Prostaglandin E synthase (Homo sapiens, UniProt O14684) pIC50 for "CC(=O)O[C@@H]1CCN(c2cc3c(=O)[nH]c(-c4cc(CNC(=O)C(C)C)ccc4Cl)nc3cc2Cl)C1" = 6.61

Fill in: Prostaglandin E synthase (Homo sapiens, UniProt O14684) pIC50 for "CC(C)C(=O)NCc1ccc(Cl)c(-c2nc3cc(Cl)ccc3c(=O)[nH]2)c1" = 7.38

Fill in: Prostaglandin E synthase (Homo sapiens, UniProt O14684) pIC50 for "CC(C)(C)C(=O)NCc1ccc(Cl)c(C(=O)Nc2ccnc3c(Nc4ccc(C(F)(F)F)cc4)nsc23)c1" = 8.52

Fill in: Prostaglandin E synthase (Homo sapiens, UniProt O14684) pIC50 for "CC(C)C(=O)NCc1ccc(Cl)c(-c2nc3cc(C(F)(F)F)ccc3c(=O)[nH]2)c1" = 7.59

====

Target: Prostaglandin E synthase (Canis lupus familiaris, UniProt A0SYQ0)
Sequence (A0SYQ0 whole entry): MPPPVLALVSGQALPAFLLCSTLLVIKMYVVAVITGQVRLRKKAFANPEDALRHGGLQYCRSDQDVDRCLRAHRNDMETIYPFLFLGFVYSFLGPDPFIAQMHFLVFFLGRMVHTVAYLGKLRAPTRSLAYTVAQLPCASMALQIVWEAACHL
Assay: Inhibition of mPGES-1 in dog whole blood assessed as inhibition of LPS-induced PGE2 production after overnight incubation
observed_property: pIC50
Convention used: pIC50 is expressed as -log10 of the molar concentration.

For "CC(C)C(=O)NCc1ccc(Cl)c(-c2nc3cc(-c4ccc(C(F)(F)F)cc4)ncc3c(=O)[nH]2)c1" the compound record lists pIC50 as 6.81

====

Assay: Stability in human liver microsomes assessed as compound remaining after 60 mins
Type: ADME
Settings: read-out: Stability
observed_property: remaining at 1 h (%)
Express your answer in %, writing the number without its unit.

For "CC(C)C(=O)NCc1ccc(Cl)c(-c2nc3cc(-c4ccc(C(F)(F)F)cc4)ncc3c(=O)[nH]2)c1" the compound record lists remaining at 1 h as 91

====

Target: Prostaglandin E synthase (Homo sapiens, UniProt O14684)
Sequence (O14684 whole entry): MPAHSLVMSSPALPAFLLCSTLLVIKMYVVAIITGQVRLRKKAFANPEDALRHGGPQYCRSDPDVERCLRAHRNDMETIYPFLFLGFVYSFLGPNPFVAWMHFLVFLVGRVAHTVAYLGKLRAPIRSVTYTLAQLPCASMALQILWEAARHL
Assay: Inhibition of human mPGES-1
observed_property: IC50 (nM)
Express your answer in nM, writing the number without its unit.

For "COCc1nc2c(C(=O)Nc3cccc(Cl)c3C)cc(NC(=O)c3c(Cl)cccc3C(F)(F)F)cc2[nH]1" the compound record lists IC50 as 0.1
